- ASSAY EXPLANATION: Solubility of compound in small intestinal contents in the fasted state at pH 6.5
- Format: ADME
Output Satisfied for solubility not less than 30 µg/mL; output Not satisfied otherwise.

Could you tell me if the measured solubility of O=C(O)CCCOc1cccc(CCCCCCOc2cc(-c3ccsc3)cc(-c3ccc4c(c3)OCO4)c2)c1CCC(=O)O reaches 30 µg/mL or more? Satisfied

Continue with O=C(O)CCCOc1cccc(CCCCCCOc2cc(-c3ccc4c(c3)OCO4)cc(-c3ccccc3F)c2)c1CCC(=O)O Not satisfied

Continue with O=C(O)CCCOc1cccc(CCCCCCOc2cc(-c3ccccc3)cc(-c3ccccc3)c2)c1CCC(=O)O Not satisfied

Continue with O=C(O)CCCOc1cccc(CCCCCCOc2cc(-c3ccncc3)cc(-c3ccncc3)c2)c1CCC(=O)O Not satisfied

Continue with O=C(O)CCCOc1cccc(CCCCCCOc2cc(-c3ccccc3)cc(-c3ccccc3)n2)c1CCC(=O)O Not satisfied

This collection of values is drawn from ChEMBL document CHEMBL1158546.
